Test system: MDR1
experimentalProtocol: Apparent permeability across apical to basolateral side in dog MDCK-MDR1 cells
Assay type: ADME, cell-based, Canis lupus familiaris
recordedMetric: Papp A→B (×10⁻⁶ cm/s)
Report only the number, with the unit ×10⁻⁶ cm/s understood.

Which measured Papp A→B belongs to CC(=O)N1Cc2cc(S(C)(=O)=O)ccc2[C@@H]1C(=O)Nc1ccc(C(O)(C(F)(F)F)C(F)(F)F)cc1 , tested on MDR1? 0.9

* * *

experimentalProtocol: in vitro
settings: human, liver microsomes
recordedMetric: microsomal CLint

CNS(=O)(=O)c1ccc2c(c1)CN(C(=O)C1CCO1)C2C(=O)Nc1ccc(C(O)(C(F)(F)F)C(F)(F)F)cc1 (stereo not given): < 3 µL/min/mg
CCS(=O)(=O)c1ccc(C(Cn2cccn2)C(=O)Nc2ccc(C(O)(C(F)(F)F)C(F)(F)F)cc2)cc1 (stereo not given): 16 µL/min/mg
CCS(=O)(=O)c1ccc([C@H](CC(=O)NC)C(=O)Nc2ccc(C(O)(C(F)(F)F)C(F)(F)F)cc2)cc1: < 3 µL/min/mg
CC(=O)N1Cc2cc(S(=O)(=O)CCO)ccc2C1C(=O)Nc1ccc(C(O)(C(F)(F)F)C(F)(F)F)cc1 (stereo not given): 3.1 µL/min/mg
CC(=O)N1Cc2cc(S(=O)(=O)NC3CC3)ccc2C1C(=O)Nc1ccc(C(O)(C(F)(F)F)C(F)(F)F)cc1 (stereo not given): 11 µL/min/mg

What value of microsomal CLint has been reported for the following compound? CC(=O)N1Cc2cc(S(=O)(=O)CC3(F)CC3)ccc2C1C(=O)Nc1ccc(C(O)(C(F)(F)F)C(F)(F)F)cc1 (stereo not given) 7.9 µL/min/mg

What value of microsomal CLint has been reported for the following compound? CCS(=O)(=O)c1ccc(C(NC(=O)OC)C(=O)Nc2ccc(C(O)(C(F)(F)F)C(F)(F)F)cc2)nc1 (stereo not given) < 3 µL/min/mg

What value of microsomal CLint has been reported for the following compound? CC(=O)N1Cc2cc(S(C)(=O)=O)ccc2C1C(=O)Nc1ccc(C(O)(C(F)(F)F)C(F)(F)F)cc1 (racemic) < 3 µL/min/mg

What value of microsomal CLint has been reported for the following compound? CCS(=O)(=O)c1ccc(C(NC(=O)Cc2ccccc2)C(=O)Nc2ccc(C(O)(C(F)(F)F)C(F)(F)F)cc2)nc1 (stereo not given) 21 µL/min/mg

What value of microsomal CLint has been reported for the following compound? CCS(=O)(=O)c1ccc2c(c1)CN(C(=O)C1CCO1)C2C(=O)Nc1ccc(C(O)(C(F)(F)F)C(F)(F)F)cc1 (stereo not given) < 3 µL/min/mg

What value of microsomal CLint has been reported for the following compound? CNS(=O)(=O)c1ccc2c(c1)CN(C=O)C2C(=O)Nc1ccc(C(O)(C(F)(F)F)C(F)(F)F)cc1 (stereo not given) 6.8 µL/min/mg

What value of microsomal CLint has been reported for the following compound? CS(=O)(=O)c1ccc2c(c1)CN(C(=O)CO)C2C(=O)Nc1ccc(C(O)(C(F)(F)F)C(F)(F)F)cc1 (stereo not given) < 3 µL/min/mg

What value of microsomal CLint has been reported for the following compound? CCS(=O)(=O)c1ccc2c(c1)CN(C(=O)CCC#N)C2C(=O)Nc1ccc(C(O)(C(F)(F)F)C(F)(F)F)cc1 (stereo not given) < 3 µL/min/mg

What value of microsomal CLint has been reported for the following compound? CS(=O)(=O)c1ccc2c(c1)CNC2C(=O)Nc1ccc(C(O)(C(F)(F)F)C(F)(F)F)cc1 (stereo not given) < 3 µL/min/mg

What value of microsomal CLint has been reported for the following compound? CCS(=O)(=O)c1ccc(C(NC(=O)Cc2ccccn2)C(=O)Nc2ccc(C(O)(C(F)(F)F)C(F)(F)F)cc2)nc1 (stereo not given) < 3 µL/min/mg
